Origin of values: patent US12522594B2

biological target: AHR (Homo sapiens, UniProt P35869); test: In vitro assay 1: antagonism in human cell line (transactivation assay, U87 cells prestimulated with kynurenic acid, DRE firefly luciferase reporter); format: cell-based; parameters: host or cells: U87 glioblastoma cells, stably transfected with DRE firefly luciferase and renilla reporter constructs; conditions: 150 uM kynurenic acid, 20 hours, read-out: Assay 1: AHR-luc Hum Antagonism IC50
Sequence (P35869 11-848): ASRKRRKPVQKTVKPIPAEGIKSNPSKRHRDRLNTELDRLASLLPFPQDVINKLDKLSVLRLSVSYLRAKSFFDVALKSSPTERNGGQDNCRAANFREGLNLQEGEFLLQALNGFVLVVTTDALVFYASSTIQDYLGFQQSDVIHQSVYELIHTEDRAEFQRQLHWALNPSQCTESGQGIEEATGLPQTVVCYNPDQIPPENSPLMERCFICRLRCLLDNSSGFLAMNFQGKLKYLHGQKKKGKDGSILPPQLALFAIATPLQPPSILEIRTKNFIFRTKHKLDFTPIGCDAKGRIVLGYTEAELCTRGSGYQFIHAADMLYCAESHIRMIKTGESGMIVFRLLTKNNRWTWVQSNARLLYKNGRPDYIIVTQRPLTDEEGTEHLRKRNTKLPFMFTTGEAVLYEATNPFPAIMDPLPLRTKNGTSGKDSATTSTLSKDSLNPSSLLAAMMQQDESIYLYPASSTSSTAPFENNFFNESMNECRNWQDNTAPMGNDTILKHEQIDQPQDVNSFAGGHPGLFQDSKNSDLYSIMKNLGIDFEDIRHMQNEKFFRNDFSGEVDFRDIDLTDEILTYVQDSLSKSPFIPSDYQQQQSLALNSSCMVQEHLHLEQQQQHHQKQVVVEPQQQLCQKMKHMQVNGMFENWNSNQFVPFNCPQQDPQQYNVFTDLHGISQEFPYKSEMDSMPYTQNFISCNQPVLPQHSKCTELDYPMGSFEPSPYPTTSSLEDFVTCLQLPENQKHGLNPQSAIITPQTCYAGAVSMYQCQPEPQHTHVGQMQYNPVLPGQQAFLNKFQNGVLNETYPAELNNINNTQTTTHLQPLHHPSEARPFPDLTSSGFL
pIC50: −log10 of the molar value.
MEASURED ENDPOINT: pIC50

A. C[C@H](NC(=O)c1cc(-c2ccc(C(F)(F)F)cc2)nn(-c2cnsc2)c1=O)C(C)(C)O [Example 196]
B. O=C(N[C@@H]1COC[C@@H]1O)c1cc(-c2ccc(C(F)(F)F)cc2)nn(-c2cccnc2)c1=O (single isomer, unassigned) [Example 229]
C. COC[C@H](CO)NC(=O)c1cc(-c2ccc(Cl)cc2)nn(-c2cnn(C)c2)c1=O [Example 29]
D. O=C(N[C@H](CO)C1CC1)c1cc(-c2ccc(C(F)(F)F)cc2)nn(-c2cnsc2)c1=O [Example 207]
Ask | Please rank the 4 items above; order by pIC50, the highest number leading. Output spec: a listing of the labels in the requested order.
Reply | A, D, B, C
